As shown below, each of these compounds has a reported growth inhibition value.
Tested on: DIPGX29 (H3.3 K27M diffuse intrinsic pontine glioma line)
assayMethodText: growth inhibition (% activity, log2 RLU normalised to DMSO / staurosporine); higher = more growth inhibition
measurementParameters: 33 µM
Number in %, nothing else.

Example compounds with recorded growth inhibition:
{"columns": ["compound", "growth inhibition [%]"],
 "data": [
  ["CN[C@H]1CC[C@@H](c2ccc(Cl)c(Cl)c2)c2ccccc21", 13.3],
  ["COc1cc(OC)c(C(=O)CCCN2CCCC2)c(OC)c1", -0.72],
  ["CCCCc1ncc(/C=C(\\Cc2cccs2)C(=O)O)n1Cc1ccc(C(=O)O)cc1", -0.827],
  ["CC(C)NCC(O)c1ccc(O)c(O)c1 (centres undefined)", -3.68],
  ["COc1cc2nc(N3CCN(C(=O)C4CCCO4)CC3)nc(N)c2cc1OC (centres undefined)", 1.51],
  ["CNC[C@H](O)[C@@H](O)[C@H](O)[C@H](O)CO", 1.22],
  ["CCN1CCCC1CNC(=O)c1cc(S(N)(=O)=O)ccc1OC (centres undefined)", 1.2],
  ["CCc1cccc2c3c([nH]c12)C(CC)(CC(=O)O)OCC3 (centres undefined)", 1.41]
]}

Specify growth inhibition for N[C@@H](Cc1ccc(O)c(O)c1)C(=O)O and stop. -0.663

State, in one line, measured growth inhibition of Cc1c(C(=O)NN2CCCCC2)nn(-c2ccc(Cl)cc2Cl)c1-c1ccc(Cl)cc1 -2.71

Supply growth inhibition value. Item: CCOc1cc(CC(=O)N[C@@H](CC(C)C)c2ccccc2N2CCCCC2)ccc1C(=O)O 0.598

* * *

Tested on: DIPGX9 (diffuse intrinsic pontine glioma line)
assayMethodText: growth inhibition (% activity, log2 RLU normalised to DMSO / staurosporine); higher = more growth inhibition
measurementParameters: 33 µM
# key: entry, value: growth inhibition
Write the number in % without appending the unit.

{"columns": ["structureSmiles", "unitAbbrev", "assayResult"],
 "data": [
  ["C[C@H]1C[C@H]2[C@@H]3CCC4=CC(=O)C=C[C@]4(C)[C@H]3C(=O)C[C@]2(C)[C@@]1(O)C(=O)CO", "%", -1.67],
  ["COc1ccc2c(c1)c(CC(=O)OCC(=O)O)c(C)n2C(=O)c1ccc(Cl)cc1", "%", 5.54],
  ["COCCCC/C(=N\\OCCN)c1ccc(C(F)(F)F)cc1", "%", 3.17],
  ["CN(C)[C@@H](CCOc1cccc2ccccc12)c1ccccc1", "%", 3.36]
]}

Now, please, on to the next compound.
Answer with reported growth inhibition of O=C(c1ccc(OCCN2CCCCC2)cc1)c1c(-c2ccc(O)cc2)sc2cc(O)ccc12 1.84

* * *

System: SUDIPGIV (diffuse intrinsic pontine glioma line)
assayMethodText: growth inhibition (% activity, log2 RLU normalised to DMSO / staurosporine); higher = more growth inhibition
measurementParameters: 33 µM
Entries and their measured growth inhibition follow.
The figure you give is taken to be in %; do not add the unit.

Example results:
{"columns": ["compound", "growth inhibition (%)"],
 "data": [
  ["NS(=O)(=O)c1cc2c(cc1C(F)(F)F)NC(Cc1ccccc1)NS2(=O)=O (stereo unspecified)", -1.96],
  ["C#CC1(O)CCC2C3CCc4cc(OC)ccc4C3CCC21C (stereo unspecified)", -1.25],
  ["NC(=O)N/N=C/c1ccc([N+](=O)[O-])o1", -1.17],
  ["CCN1CCN(c2cc3c(cc2F)c(=O)c(C(=O)O)cn3C2CC2)CC1", 1.5],
  ["COc1c(C)c2c(c(O)c1C/C=C(\\C)CCC(=O)OCCN1CCOCC1)C(=O)OC2", 8.44],
  ["Clc1ccc(COC(Cn2ccnc2)c2ccc(Cl)cc2Cl)cc1 (stereo unspecified)", 11.7]
]}

Identify measured growth inhibition corresponding to c1ccc2c(c1)CCCC2C1=NCCN1 (stereo unspecified) 3.45

Annotate the compound CCCCN1CCCCC1C(=O)Nc1c(C)cccc1C (stereo unspecified) with its measured growth inhibition. -2.22

Consider the compound Cc1onc(-c2ccccc2)c1C(=O)N[C@@H]1C(=O)N2[C@@H]1SC(C)(C)[C@@H]2C(=O)O . State its measured growth inhibition. 0.237

Consider the compound CC1=C(/C=C/C(C)=C/C=C/C(C)=C/C=C/C=C(C)/C=C/C=C(C)/C=C/C2=C(C)CCCC2(C)C)C(C)(C)CCC1 and give its recorded growth inhibition. -5

Fill in reported growth inhibition for this entry: CC(S)C(=O)NCC(=O)O (stereo unspecified) -0.0269
